- Test system: Diutina rugosa
- PROTOCOL: Antifungal activity against Candida rugosa isolates from feeding stuff by NCCLS M27-A2 method
- Type: functional
Listed here: items and their measured MIC50.
Give the quantity in mg/L, number only.

[
  {
    "COMPOUND": "OC(Cn1cncn1)(Cn1cncn1)c1ccc(F)cc1F",
    "MEASURED ENDPOINT": "MIC50",
    "UOM": "mg/L",
    "VALUE": 1
  },
  {
    "COMPOUND": "CC(=O)N1CCN(c2ccc(OCC3COC(Cn4ccnc4)(c4ccc(Cl)cc4Cl)O3)cc2)CC1 (centres undefined)",
    "MEASURED ENDPOINT": "MIC50",
    "UOM": "mg/L",
    "VALUE": 0.25
  },
  {
    "COMPOUND": "CC(C)(C)C(O)C(Oc1ccc(Cl)cc1)n1cncn1 (centres undefined)",
    "MEASURED ENDPOINT": "MIC50",
    "UOM": "mg/L",
    "VALUE": 1
  }
]

With those in mind, consider the next compound.
MIC50 lookup needed for O=c1c2cc(F)ccc2nc(-n2cncn2)n1-c1ccc(Cl)cc1Cl , thanks. 0.12

---

Listed here: items and their measured MIC50.
- System: Pichia norvegensis
- PROTOCOL: Antifungal activity against Candida norvegensis isolates from grapes by NCCLS M27-A2 method
- Type: functional
# output: numeric value plus its unit

These solved cases illustrate the format of a correct answer.
[
  {
    "MOLECULE": "CC(C)(C)C(O)(CCc1ccc(Cl)cc1)Cn1cncn1 (stereo not drawn)",
    "VALUE": "4 µg/mL"
  },
  {
    "MOLECULE": "CCC(C)n1ncn(-c2ccc(N3CCN(c4ccc(OCC5COC(Cn6cncn6)(c6ccc(Cl)cc6Cl)O5)cc4)CC3)cc2)c1=O (stereo not drawn)",
    "VALUE": "1 µg/mL"
  },
  {
    "MOLECULE": "CC(C)(C)C(O)C(Oc1ccc(Cl)cc1)n1cncn1 (stereo not drawn)",
    "VALUE": "64 µg/mL"
  },
  {
    "MOLECULE": "O=c1c2cc(F)ccc2nc(-n2cncn2)n1-c1ccc(Cl)cc1Cl",
    "VALUE": "64 µg/mL"
  },
  {
    "MOLECULE": "OC(Cn1cncn1)(Cn1cncn1)c1ccc(F)cc1F",
    "VALUE": "128 µg/mL"
  }
]

MIC50 lookup needed for CCCC(Cn1cncn1)c1ccc(Cl)cc1Cl (stereo not drawn) , thanks. 64 µg/mL

MIC50 lookup needed for CC(=O)N1CCN(c2ccc(OCC3COC(Cn4ccnc4)(c4ccc(Cl)cc4Cl)O3)cc2)CC1 (stereo not drawn) , thanks. 2 µg/mL

MIC50 lookup needed for C[C@@H](c1ncncc1F)[C@](O)(Cn1cncn1)c1ccc(F)cc1F , thanks. 2 µg/mL

---

Listed here: items and their measured log10 MIC50.
- System: Candida albicans
- PROTOCOL: Antifungal activity against Candida albicans isolates by NCCLS M27-A2 method
- Format: functional
Log scale reminder: MIC50 in µg/mL, then log10 taken.

These solved cases illustrate the format of a correct answer.
[
  {
    "COMPOUND": "CC(=O)N1CCN(c2ccc(OCC3COC(Cn4ccnc4)(c4ccc(Cl)cc4Cl)O3)cc2)CC1 (stereo not drawn)",
    "log10 MIC50": -1.52
  },
  {
    "COMPOUND": "O=c1c2cc(F)ccc2nc(-n2cncn2)n1-c1ccc(Cl)cc1Cl",
    "log10 MIC50": -0.30
  },
  {
    "COMPOUND": "CC(C)(C)C(O)(CCc1ccc(Cl)cc1)Cn1cncn1 (stereo not drawn)",
    "log10 MIC50": -1.22
  },
  {
    "COMPOUND": "OC(Cn1cncn1)(Cn1cncn1)c1ccc(F)cc1F",
    "log10 MIC50": -0.92
  },
  {
    "COMPOUND": "C[C@@H](c1ncncc1F)[C@](O)(Cn1cncn1)c1ccc(F)cc1F",
    "log10 MIC50": -1.52
  }
]

log10 MIC50 lookup needed for CCC(C)n1ncn(-c2ccc(N3CCN(c4ccc(OCC5COC(Cn6cncn6)(c6ccc(Cl)cc6Cl)O5)cc4)CC3)cc2)c1=O (stereo not drawn) , thanks. -1.22

log10 MIC50 lookup needed for CC(C)(C)C(O)C(Oc1ccc(Cl)cc1)n1cncn1 (stereo not drawn) , thanks. 0.30

log10 MIC50 lookup needed for CCCC(Cn1cncn1)c1ccc(Cl)cc1Cl (stereo not drawn) , thanks. 0.30

---

- Tested on: Wickerhamomyces anomalus
- PROTOCOL: Antifungal activity against Pichia anomala isolates from grapes by NCCLS M27-A2 method
- Format: functional
- CONDITION LABEL: Hansenula anomala
Listed here: items and their measured MIC50.
Give the quantity in µg/mL, number only.

These solved cases illustrate the format of a correct answer.
[
  {
    "COMPOUND": "CC(C)(C)C(O)(CCc1ccc(Cl)cc1)Cn1cncn1 (stereo not drawn) [TEBUCONAZOLE]",
    "MIC50 [µg/mL]": 4
  },
  {
    "COMPOUND": "O=c1c2cc(F)ccc2nc(-n2cncn2)n1-c1ccc(Cl)cc1Cl [FLUQUINCONAZOLE]",
    "MIC50 [µg/mL]": 4
  },
  {
    "COMPOUND": "C[C@@H](c1ncncc1F)[C@](O)(Cn1cncn1)c1ccc(F)cc1F [VORICONAZOLE]",
    "MIC50 [µg/mL]": 0.25
  },
  {
    "COMPOUND": "OC(Cn1cncn1)(Cn1cncn1)c1ccc(F)cc1F [FLUCONAZOLE]",
    "MIC50 [µg/mL]": 2
  },
  {
    "COMPOUND": "CC(C)(C)C(O)C(Oc1ccc(Cl)cc1)n1cncn1 (stereo not drawn) [TRIADIMENOL]",
    "MIC50 [µg/mL]": 16
  },
  {
    "COMPOUND": "CCCC(Cn1cncn1)c1ccc(Cl)cc1Cl (stereo not drawn) [PENCONAZOLE]",
    "MIC50 [µg/mL]": 8
  },
  {
    "COMPOUND": "CC(=O)N1CCN(c2ccc(OCC3COC(Cn4ccnc4)(c4ccc(Cl)cc4Cl)O3)cc2)CC1 (stereo not drawn) [KETOCONAZOLE]",
    "MIC50 [µg/mL]": 1
  }
]

With those in mind, consider the next compound.
MIC50 lookup needed for CCC(C)n1ncn(-c2ccc(N3CCN(c4ccc(OCC5COC(Cn6cncn6)(c6ccc(Cl)cc6Cl)O5)cc4)CC3)cc2)c1=O (stereo not drawn) [ITRACONAZOLE] , thanks. 0.5

---

- Tested on: Diutina rugosa
- PROTOCOL: Antifungal activity against Candida rugosa isolates from feeding stuff by NCCLS M27-A2 method
- Type: functional
Listed here: items and their measured MIC50.
Give the quantity in µg/mL, number only.

[
  {
    "COMPOUND": "CC(C)(C)C(O)(CCc1ccc(Cl)cc1)Cn1cncn1 (centres undefined)",
    "VALUE": 0.06
  },
  {
    "COMPOUND": "CCC(C)n1ncn(-c2ccc(N3CCN(c4ccc(OCC5COC(Cn6cncn6)(c6ccc(Cl)cc6Cl)O5)cc4)CC3)cc2)c1=O (centres undefined)",
    "VALUE": 0.06
  },
  {
    "COMPOUND": "CCCC(Cn1cncn1)c1ccc(Cl)cc1Cl (centres undefined)",
    "VALUE": 1
  }
]

With those in mind, consider the next compound.
MIC50 lookup needed for C[C@@H](c1ncncc1F)[C@](O)(Cn1cncn1)c1ccc(F)cc1F , thanks. 0.03
